// provenance: patent US20260365670A1

# Tested on: PC-9
# test.name: Cell proliferation assay, PC-9 cells (CellTiter-Glo, 72 hours)
# Assay type: cell-based
# assay.setup: Homo sapiens, PC-9, 72 h, PC9 cells, CellTiter-Glo, read-out: PC9 GI50
GI50 values by entry
Number in nM, nothing else.

Query: Find the recorded GI50 belonging to Cn1ncc2c1OCCN(CC(F)(F)F)CCn1c(nc3ccccc31)NC(=O)c1cc-2c(=O)n(C)c1 [Example A1] and report it.
Response: 68

Query: Find the recorded GI50 belonging to Cn1ncc2c1OCCN1CC3CCC(C3)(C1)n1c(nc3cc(Br)ccc31)NC(=O)c1cc-2c(=O)n(C)c1 (stereo not shown) [Example A59] and report it.
Response: 295

Query: Find the recorded GI50 belonging to C[C@@H]1CCCOc2c(cnn2C)-c2cc(cn(C)c2=O)C(=O)Nc2nc3ccc(N4CCC(N5CCOCC5)C4)cc3n2C1 (stereo partly shown) [Example A28] and report it.
Response: 38

Query: Find the recorded GI50 belonging to C[C@@H]1CCCOc2c(cnn2C)-c2cc(cn(C)c2=O)C(=O)Nc2nc3ccc(N4CC5CCN(C)C5C4)cc3n2C1 (stereo partly shown) [Example A32] and report it.
Response: 7.3

Query: Find the recorded GI50 belonging to C[C@@H]1CCCOc2c(cnn2CC(F)(F)F)-c2cc(cn(C)c2=O)C(=O)Nc2nc3ccc(N4CCN(C)CC4)cc3n2C1 [Example A20] and report it.
Response: 145

Further cases:
Query: Find the recorded GI50 belonging to C[C@@H]1CCCOc2c(cnn2C)-c2cc(cn(C)c2=O)C(=O)Nc2nc3ccc(N4CC(F)(CN(C)C)C4)cc3n2C1 [Example A58] and report it.
Response: 325

Query: Find the recorded GI50 belonging to C[C@@H]1CCCOc2c(cnn2C)-c2cc(cn(C)c2=O)C(=O)Nc2nc3ccc(Br)cc3n2C1 [Example M3] and report it.
Response: 252

Query: Find the recorded GI50 belonging to C[C@@H]1CCCOc2c(cnn2C)-c2cc(cn(C)c2=O)C(=O)Nc2nc3ccc(N4CCC5(CN(C)C5)C4)cc3n2C1 [Example A43] and report it.
Response: 5.7
